Answer each item with its documented Population Healthy Nuclei (%).
- System: Fibroblast
- Assay Overview: Multiplex assay against human fibroblast
- Type: toxicity, cell-based
- Condition Summary: 48 h, 10 µM, compound concentration 10 uM, replicate 1

State the recorded Population Healthy Nuclei (%) for this entry: CC1=C(C(=O)Nc2cc3cn[nH]c3cc2F)C(c2ccc(C(F)(F)F)cc2)CC(=O)N1 (centres undefined)
54%

State the recorded Population Healthy Nuclei (%) for this entry: COc1cc2ncn(-c3cc(OCc4ccccc4C(F)(F)F)c(C(N)=O)s3)c2cc1OC [GW843682X]
45%

State the recorded Population Healthy Nuclei (%) for this entry: CN1CCN(Cc2ccc(Nc3ncc(Cl)c(Nc4ccccc4S(=O)(=O)N(C)C)n3)cc2)CC1
36%

State the recorded Population Healthy Nuclei (%) for this entry: CC(C)NC(=O)N1CC[C@H](NC2=Nc3cc(F)ccc3N(CC(F)F)c3ccc(Cl)cc32)C1
48%

----------
Answer each item with its documented Population Healthy Nuclei (%).
- Tested on: Fibroblast
- Assay Overview: Multiplex assay against human fibroblast
- Type: toxicity, cell-based
- Condition Summary: 48 h, 10 µM, compound concentration 10 uM, replicate 2
Just the number plus its unit, please.

State the recorded Population Healthy Nuclei (%) for this entry: O=C(c1cc2c(cc1F)OC(c1ccc(F)cc1)(c1ccc(Cl)cc1Cl)O2)N1CCOCC1 (stereo not drawn)
56%

State the recorded Population Healthy Nuclei (%) for this entry: Cc1cccc(CN2CCN(C(c3ccccc3)c3ccc(Cl)cc3)CC2)c1.Cl.Cl (stereo not drawn)
52%

State the recorded Population Healthy Nuclei (%) for this entry: Cc1c[nH]c2nccc(Oc3c(F)cc(Nc4cc(Cl)nc(N)n4)cc3F)c12
45%

State the recorded Population Healthy Nuclei (%) for this entry: CC1=C(C(=O)Nc2cc3cn[nH]c3cc2F)C(c2ccc(C(F)(F)F)cc2)CC(=O)N1 (stereo not drawn)
65%

State the recorded Population Healthy Nuclei (%) for this entry: COc1cc2ncn(-c3cc(OCc4ccccc4C(F)(F)F)c(C(N)=O)s3)c2cc1OC [GW843682X]
55%

State the recorded Population Healthy Nuclei (%) for this entry: COc1ccc(-c2ccc3ncc4c(c3c2)n(-c2ccc(N3CCNCC3)c(C(F)(F)F)c2)c(=O)n4C)cn1.O=C(O)/C=C\C(=O)O
17%

State the recorded Population Healthy Nuclei (%) for this entry: CC(C)(C)NC[C@H](O)COc1nsnc1N1CCOCC1
77%

State the recorded Population Healthy Nuclei (%) for this entry: C[C@]12CC[C@@H]3c4ccc(O)cc4CC[C@H]3[C@@H]1CC[C@@H]2O
65%

State the recorded Population Healthy Nuclei (%) for this entry: CCCSc1nc(N[C@@H]2C[C@H]2c2ccc(F)c(F)c2)c2nnn([C@@H]3C[C@H](OCCO)[C@@H](O)[C@H]3O)c2n1
61%

State the recorded Population Healthy Nuclei (%) for this entry: Cc1ccc2c(c1)c1c(n2CCc2ccc(C)nc2)CCN(C)C1 [LATREPIRDINE]
64%

State the recorded Population Healthy Nuclei (%) for this entry: CCc1ccc(OCc2ccccc2C(=O)Nc2ccc3nc(C)cc(N)c3c2)cc1.Cl
8%

State the recorded Population Healthy Nuclei (%) for this entry: Cl.O=C(O)c1cc(-c2ccc(C3CCNCC3)cc2)c2ccc(-c3ccc(C(F)(F)F)cc3)cc2c1
38%

State the recorded Population Healthy Nuclei (%) for this entry: Cc1ccccc1C(c1ccccc1C)N1C2CCC1CC(O)(c1ccccc1)C2 (stereo not drawn)
62%

State the recorded Population Healthy Nuclei (%) for this entry: CC(C)c1noc(N2CCC(COc3ccc(-c4ccc(S(C)(=O)=O)cc4)nc3)CC2)n1
74%

State the recorded Population Healthy Nuclei (%) for this entry: CC(C)Oc1ccccc1C(=O)Nc1ccccc1C(=O)Nc1cccc(S(=O)(=O)C(F)(F)F)c1
29%

State the recorded Population Healthy Nuclei (%) for this entry: O=c1cc(N2CCOCC2)oc2c(-c3cccc4c3sc3ccccc34)cccc12
55%

State the recorded Population Healthy Nuclei (%) for this entry: C#Cc1cccc(Nc2ncnc3cc(OCCOC)c(OCCOC)cc23)c1
62%

State the recorded Population Healthy Nuclei (%) for this entry: CCOC(=O)Nc1cc(-c2ccc(C)c(NS(C)(=O)=O)c2)nn2c(C)nnc12
80%

----------
- Tested on: Fibroblast
- Assay Overview: Multiplex assay against human fibroblast
- Format: toxicity, cell-based
- Condition Summary: 24 h, 1 µM, compound concentration 1 uM, replicate 1
Answer each item with its documented Population Normal (%).
Just the number plus its unit, please.

State the recorded Population Normal (%) for this entry: Cc1cccc(CN2CCN(C(c3ccccc3)c3ccc(Cl)cc3)CC2)c1.Cl.Cl (configuration not stated)
73%

State the recorded Population Normal (%) for this entry: CC1=C(C(=O)Nc2cc3cn[nH]c3cc2F)C(c2ccc(C(F)(F)F)cc2)CC(=O)N1 (configuration not stated)
81%

State the recorded Population Normal (%) for this entry: COC(=O)C1=C(C)NC(C)=C(C(=O)OCCCN2CCC(c3ccccc3)(c3ccccc3)CC2)[C@H]1c1cccc([N+](=O)[O-])c1 [NIGULDIPINE]
86%

State the recorded Population Normal (%) for this entry: CNC(=O)Nc1ccc2c(c1)[C@@]1(CC2)OC(=O)N(CC(=O)N(Cc2ccc(F)cc2)[C@@H](C)C(F)(F)F)C1=O [A-486]
85%

State the recorded Population Normal (%) for this entry: O=C(c1cc2c(cc1F)OC(c1ccc(F)cc1)(c1ccc(Cl)cc1Cl)O2)N1CCOCC1 (configuration not stated)
81%

State the recorded Population Normal (%) for this entry: CC(C)(C)NC[C@H](O)COc1nsnc1N1CCOCC1 [TIMOLOL]
87%

State the recorded Population Normal (%) for this entry: C=CC(=O)Nc1cccc(Sc2nc(Nc3ccc(N4CCN(C)CC4)cc3)ncc2Cl)c1
92%

State the recorded Population Normal (%) for this entry: CC(C)OC(=O)N1CCC(Oc2ncnc3c2cnn3-c2ccc(S(C)(=O)=O)cc2F)CC1
86%

State the recorded Population Normal (%) for this entry: COc1cc2ncn(-c3cc(OCc4ccccc4C(F)(F)F)c(C(N)=O)s3)c2cc1OC [GW843682X]
83%

State the recorded Population Normal (%) for this entry: COc1ccccc1CN[C@H]1C2CCN(CC2)[C@H]1C(c1ccccc1)c1ccccc1 [CP-96345]
84%

State the recorded Population Normal (%) for this entry: COc1cc(Nc2nccc(-c3cnn4nc(OC)ccc34)n2)cc(C(F)(F)F)c1
80%

State the recorded Population Normal (%) for this entry: CC(C)c1noc(N2CCC(COc3ccc(-c4ccc(S(C)(=O)=O)cc4)nc3)CC2)n1 [GSK-1292263]
91%

State the recorded Population Normal (%) for this entry: Cc1nc(N2CC[C@H](O)C2)ncc1-c1cc(C(F)(F)F)cc2[nH]ncc12
87%

State the recorded Population Normal (%) for this entry: C=CC(=O)Nc1ccc2[nH]c(=O)n(C3CCN(Cc4ccc(-c5nc6cc[nH]c(=O)c6cc5-c5ccccc5)cc4)CC3)c2c1 [Borussertib]
86%

State the recorded Population Normal (%) for this entry: CCc1nn(CCCN2CCN(c3cccc(Cl)c3)CC2)c(=O)n1CCOc1ccccc1.Cl [NEFAZODONE HYDROCHLORIDE]
85%

State the recorded Population Normal (%) for this entry: O=c1[nH]c2ccccc2n1C1CCN(Cc2ccc(-c3[nH]c4cc5ncnc5cc4nc3-c3ccccc3)cc2)CC1
79%

State the recorded Population Normal (%) for this entry: Cc1ccc2c(c1)c1c(n2CCc2ccc(C)nc2)CCN(C)C1 [LATREPIRDINE]
83%

----------
Answer each item with its documented Population Fragmented Nuclei (%).
- System: HEK-293T
- Assay Overview: Multiplex assay against HEK293T
- Assay type: toxicity, cell-based
- Condition Summary: human, 48 h, 1 µM, compound concentration 1 uM, replicate 1
Quick reminder: number only, in %, skip the unit.

State the recorded Population Fragmented Nuclei (%) for this entry: Cc1cccc(CN2CCN(C(c3ccccc3)c3ccc(Cl)cc3)CC2)c1.Cl.Cl (stereo unspecified)
18

State the recorded Population Fragmented Nuclei (%) for this entry: CCCSc1nc(N[C@@H]2C[C@H]2c2ccc(F)c(F)c2)c2nnn([C@@H]3C[C@H](OCCO)[C@@H](O)[C@H]3O)c2n1
23

State the recorded Population Fragmented Nuclei (%) for this entry: O=C(c1cc2c(cc1F)OC(c1ccc(F)cc1)(c1ccc(Cl)cc1Cl)O2)N1CCOCC1 (stereo unspecified)
16

State the recorded Population Fragmented Nuclei (%) for this entry: CC(C)OC(=O)N1CCC(Oc2ncnc3c2cnn3-c2ccc(S(C)(=O)=O)cc2F)CC1
14

State the recorded Population Fragmented Nuclei (%) for this entry: COc1ccccc1CN[C@H]1C2CCN(CC2)[C@H]1C(c1ccccc1)c1ccccc1
15

State the recorded Population Fragmented Nuclei (%) for this entry: CCc1ccc(OCc2ccccc2C(=O)Nc2ccc3nc(C)cc(N)c3c2)cc1.Cl
26

----------
- Test system: HEK-293T
- Assay Overview: Multiplex assay against HEK293T
- Format: toxicity, cell-based
- Condition Summary: human, 48 h, 10 µM, compound concentration 10 uM, replicate 1
Hi, to clarify the labels: class 1 covers Population Pyknosed Nuclei (%) from 50% upward, class 0 covers anything below 50%.

# check: Population Pyknosed Nuclei (%) of Cc1ccccc1C(c1ccccc1C)N1C2CCC1CC(O)(c1ccccc1)C2 (configuration not stated) is greater than or equal to 50%
class 0

# check: Population Pyknosed Nuclei (%) of CCCSc1nc(N[C@@H]2C[C@H]2c2ccc(F)c(F)c2)c2nnn([C@@H]3C[C@H](OCCO)[C@@H](O)[C@H]3O)c2n1 is greater than or equal to 50%
class 1

# check: Population Pyknosed Nuclei (%) of COC(=O)C1=C(C)NC(C)=C(C(=O)OCCCN2CCC(c3ccccc3)(c3ccccc3)CC2)[C@H]1c1cccc([N+](=O)[O-])c1 is greater than or equal to 50%
class 1

# check: Population Pyknosed Nuclei (%) of O=c1cc(N2CCOCC2)oc2c(-c3cccc4c3sc3ccccc34)cccc12 is greater than or equal to 50%
class 1

# check: Population Pyknosed Nuclei (%) of CC(C)OC(=O)N1CCC(Oc2ncnc3c2cnn3-c2ccc(S(C)(=O)=O)cc2F)CC1 is greater than or equal to 50%
class 0

# check: Population Pyknosed Nuclei (%) of COc1ccc(-c2ccc3ncc4c(c3c2)n(-c2ccc(N3CCNCC3)c(C(F)(F)F)c2)c(=O)n4C)cn1.O=C(O)/C=C\C(=O)O is greater than or equal to 50%
class 1

# check: Population Pyknosed Nuclei (%) of Cc1ccc2c(c1)c1c(n2CCc2ccc(C)nc2)CCN(C)C1 [LATREPIRDINE] is greater than or equal to 50%
class 0

# check: Population Pyknosed Nuclei (%) of CCOC(=O)Nc1cc(-c2ccc(C)c(NS(C)(=O)=O)c2)nn2c(C)nnc12 is greater than or equal to 50%
class 0

# check: Population Pyknosed Nuclei (%) of C#Cc1cccc(Nc2ncnc3cc(OCCOC)c(OCCOC)cc23)c1 is greater than or equal to 50%
class 1

# check: Population Pyknosed Nuclei (%) of CC(C)(C)NC[C@H](O)COc1nsnc1N1CCOCC1 is greater than or equal to 50%
class 0

# check: Population Pyknosed Nuclei (%) of COc1cc(Nc2nccc(-c3cnn4nc(OC)ccc34)n2)cc(C(F)(F)F)c1 is greater than or equal to 50%
class 0

# check: Population Pyknosed Nuclei (%) of CCc1nn(CCCN2CCN(c3cccc(Cl)c3)CC2)c(=O)n1CCOc1ccccc1.Cl [NEFAZODONE HYDROCHLORIDE] is greater than or equal to 50%
class 0

# check: Population Pyknosed Nuclei (%) of O=C(c1cc2c(cc1F)OC(c1ccc(F)cc1)(c1ccc(Cl)cc1Cl)O2)N1CCOCC1 (configuration not stated) is greater than or equal to 50%
class 1

# check: Population Pyknosed Nuclei (%) of CC(C)NC(=O)N1CC[C@H](NC2=Nc3cc(F)ccc3N(CC(F)F)c3ccc(Cl)cc32)C1 is greater than or equal to 50%
class 0

# check: Population Pyknosed Nuclei (%) of Cc1c[nH]c2nccc(Oc3c(F)cc(Nc4cc(Cl)nc(N)n4)cc3F)c12 is greater than or equal to 50%
class 0

# check: Population Pyknosed Nuclei (%) of CC(C)Oc1ccccc1C(=O)Nc1ccccc1C(=O)Nc1cccc(S(=O)(=O)C(F)(F)F)c1 is greater than or equal to 50%
class 0

# check: Population Pyknosed Nuclei (%) of CN1CCN(Cc2ccc(Nc3ncc(Cl)c(Nc4ccccc4S(=O)(=O)N(C)C)n3)cc2)CC1 is greater than or equal to 50%
class 1

This collection of values is drawn from ChEMBL document CHEMBL4689842.
